Quick list: MIC per entry.
Test system: Ralstonia solanacearum
protocol-notes: Antibacterial activity against Ralstonia solanacearum CGMCC 1.12711 measured after 12 to 14 hrs
Format: functional
Please respond with the number in µM and leave the unit unwritten.

OCc1cc2c3ccccc3n(Cc3ccc(C(F)(F)F)cc3)c2c(-c2c[nH]c3ccccc23)n1: 25
OCc1cc2c3ccccc3n(Cc3cccc(Br)c3)c2c(-c2c[nH]c3ccccc23)n1: 25
OCc1cc2c3ccccc3n(Cc3ccccc3F)c2c(-c2c[nH]c3ccccc23)n1: 25
Cc1cccc(Cn2c3ccccc3c3cc(CO)nc(-c4c[nH]c5ccccc45)c32)c1: 3.12
Cc1ccc(Cn2c3ccccc3c3cc(CO)nc(-c4c[nH]c5ccccc45)c32)cc1: 12.5
OCc1cc2c3ccccc3n(Cc3ccccc3Br)c2c(-c2c[nH]c3ccccc23)n1: 50

Query: Entry under review: `OCc1cc2c3ccccc3n(Cc3cccc(F)c3)c2c(-c2c[nH]c3ccccc23)n1` . Reported MIC?
Result: 50

Query: Please answer likewise for `OCc1cc2c3ccccc3n(Cc3ccccc3C(F)(F)F)c2c(-c2c[nH]c3ccccc23)n1`
Result: 50

Query: Try this molecule next: `OCc1cc2c3ccccc3n(Cc3ccc(F)cc3)c2c(-c2c[nH]c3ccccc23)n1`
Result: 6.25
